Tested on: T-47D breast
test name: NCI-60 one-dose screen, 48 h
experimental context: 10 µM unless noted
The panel holds about 83,000 compounds, 20% with a hit somewhere; the sample as a whole holds those more often. Active and inactive are the calls of the source. Rule for the calls: active = growth percent below 10; inactive = the rest.
Respond with a class label; see true = active, false = inactive

Prompt: Outcome logged for `COc1ccc(C(=O)C[C@]2(O)C(=O)Nc3c(Cl)ccc(Cl)c32)cc1` in this assay:
Response: false

Prompt: Outcome logged for `COc1cc(C(=O)c2cc(C)c3[nH]c4ccc(C)cc4c3c2C)cc(OC)c1OC` in this assay:
Response: false

Prompt: Outcome logged for `O=C(/C=C/c1sc(Cl)nc1Cl)c1ccc(Br)cc1` in this assay:
Response: false

Prompt: Outcome logged for `Cc1ccc2sc3c(NCCCN)nc4ccccc4c3c(=O)c2c1` in this assay:
Response: false

Prompt: Outcome logged for `Cn1cc(C(=O)c2nc(-c3cn(C)c4ccc(F)cc34)no2)c2cc(F)ccc21` in this assay:
Response: false

Prompt: Outcome logged for `Cn1cc(-c2cc3ncnc(Nc4ccc(CC(=O)Nc5cc(C(C)(C)C)on5)cc4)c3s2)cn1` in this assay:
Response: false

Prompt: Outcome logged for `Cc1c(C(=O)NCCCc2ccccc2)sc2ncc(-c3ccc(Br)cc3)n12` in this assay:
Response: false

Prompt: Outcome logged for `O=C(Nc1ccc(Cl)cc1F)c1cc(Cl)ccc1O` in this assay:
Response: true

Prompt: Outcome logged for `c1ccc(Cc2nn3cc(-c4ccccc4)nc3s2)cc1` in this assay:
Response: false

Prompt: Outcome logged for `COc1ccc2nc(NC(=O)c3cccnc3Nc3ccc(S(N)(=O)=O)cc3)sc2c1` in this assay:
Response: false

Prompt: Outcome logged for `CCCCCCCCCCCCCCCCCCOc1ccc(CC(=O)OCC[N+]2(C)CCCCC2)cc1` in this assay:
Response: false

Prompt: Outcome logged for `Cc1cc(=O)oc2cc(OC(=O)N3CCN(C)CC3)ccc12` in this assay:
Response: false

Prompt: Outcome logged for `COC(=O)/C=C1\S/C(=N\Nc2ccc([N+](=O)[O-])cc2[N+](=O)[O-])N(C2CCCCC2)C1=O` in this assay:
Response: false

Prompt: Outcome logged for `CCCCC[C@H](O)C/C=C1/C(=O)C=C[C@@H]1C/C=C\CCCC(=O)O` in this assay:
Response: false

Prompt: Outcome logged for `COc1ccc(-c2[nH]ncc2-c2cc3c(c(OC)c2)OCC(=O)N3)cc1` in this assay:
Response: false

Prompt: Outcome logged for `Cc1ccc2c(n1)C(=O)C(Cl)=C(Nc1ccccc1C(C)C)C2=O` in this assay:
Response: false

Prompt: Outcome logged for CC([C@H]1CCC2C3CCC4C(=O)C(NC=O)=CC[C@]4(C)C3CC[C@@]21C)N(C)C (stereo not given in full) in this assay:
Response: true

Prompt: Outcome logged for CCN1C(=O)N(CC)C2Nn3c(s/c(=C\c4ccc([N+](=O)[O-])cc4)c3=O)=NC21 (stereo not given) in this assay:
Response: false

Prompt: Outcome logged for `CCc1ccc(Oc2c(-c3ccc(OCc4ccc(Cl)cc4)cc3O)nn(C)c2C(F)(F)F)cc1` in this assay:
Response: true

Prompt: Outcome logged for `NS(=O)(=O)c1ccc(N=Nc2ccc(-c3nn4cc(-c5ccccc5)nc4s3)cc2)cc1` in this assay:
Response: false

Prompt: Outcome logged for `Clc1ccc2c(c1)N(CCCN1CCCC1)c1ccccc1S2` in this assay:
Response: false

Prompt: Outcome logged for `O=C1COCCN1c1ccc(NCc2cn(C(=O)c3ccc(Cl)cc3)c3ccccc23)cc1` in this assay:
Response: true

Prompt: Outcome logged for `C/C(=N/NC(N)=S)c1sc(Nc2cccc(Cl)c2)nc1C` in this assay:
Response: false

Prompt: Outcome logged for COc1ccc(C2C(N)=NNC2c2cccc(O)c2)cc1 (stereo not given) in this assay:
Response: false

Prompt: Outcome logged for `COc1ccc2sc3c(NCCO)nc4ccccc4c3c(=O)c2c1` in this assay:
Response: false

Reference source: PubChem BioAssay (NCI)
